List of interaction score values.
Biological target: T1, 4H716-AA
T1 chain: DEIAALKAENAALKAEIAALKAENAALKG
Experiment: two-hybrid library CCmax;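 note: natural log of median RNA to DNA barcode read ratio; higher means stronger binding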
Conditions: mean of both orientations
endpointName: interaction score

binder	result
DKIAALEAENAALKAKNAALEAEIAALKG [4H2290-AA]	-1.57
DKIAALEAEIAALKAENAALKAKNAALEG [4H2143-AA]	-1.59
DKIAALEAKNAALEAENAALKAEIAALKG [4H2458-AA]	-0.991
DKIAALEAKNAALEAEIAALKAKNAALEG [4H2447-AA]	-1.36
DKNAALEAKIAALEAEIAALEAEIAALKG [4H3330-AA]	-1.14
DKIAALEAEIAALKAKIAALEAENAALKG [4H2148-AA]	-1.22
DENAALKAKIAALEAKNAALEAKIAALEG [4H1845-AA]	-1.81

Each recorded value in this set is attributed to paper PMC10397247.
